Target: T1, Hof1, Q05080
T1 sequence (Q05080 590-669, looked up): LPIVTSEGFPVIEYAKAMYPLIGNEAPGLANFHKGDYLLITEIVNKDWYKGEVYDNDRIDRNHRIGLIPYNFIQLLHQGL
Assay: SPOT array
Settings: median of control spots 4086
measure: SPOT intensity
Give a plain numeric answer without units written out.

{"binder": "KWVRRPKLMTPLTFS", "SPOT intensity": 8}

Recorded result, "PALPSLPPPPLLNVD" , SPOT intensity: 6720

GET /value?item= "MTKTPETSPPKRPMG" &field=SPOT intensity returns 16

// field: SPOT intensity; key: "IRMPSNPALPKKLLN" ; value = 6

The reported value for "APKHAPPPVPNETDN" in terms of SPOT intensity is 0

Documented SPOT intensity of "ILARAILTIPRVLDK" : 0

So for "LRIKRKPVQTFFEFI" , the logged SPOT intensity turned out to be 7

Briefly, SPOT intensity measured for "TKPTPPPKPSHLKPK" : 3

Lookup result for "GATNNAPTLPKRKNP" ; measured SPOT intensity: 0

For this binder ( "NLDRSKISLPDFDDE" ), measured SPOT intensity is 8
